- MEASURED ON: Pin1 (Example 6, construct not stated) (human) (UniProt Q13526)
- TEST PROTOCOL: fluorescence anisotropy
Starred links: 1 amine or outer side, 2 acyl side, 3 side chain; linkers in the order of their positions; H or OH if unused. Non-standard residues stand in square brackets, D forms with d. Primed or numbered codes have the meaning given here. Trimesoyl = O=C(c1cc(C(=O)[*:2])cc(C(=O)[*:3])c1)[*:1]; 2Nal = N[C@@H](Cc1ccc2ccccc2c1)C(=O)O; Pip′ = L-homoproline (pipecolyl); Dap = NC[C@H](N)C(=O)O; βAla = NCCC(=O)O; Sar = CNCC(=O)O
Examples of binders with documented Kd follow.

BINDER | READOUT UNIT | Kd
Trimesoyl-P[Sar][dD][Pip′][2Nal]R[βAla][βAla][Dap]F[2Nal]RRRR[Dap]K-NH2 (linker (positions not given here) via Trimesoyl; not fully specified (some residues, bridges); printed as bicyclo[Tm-(Pro-Sar-D-Asp-Pip-Nal-Arg-β-Ala-β-Ala)-Dap-(Phe-Nal-Arg-Arg-Arg-Arg-Dap)]-Lys) [peptide 15 (Table 18)] | µM | 4.83
Trimesoyl-P[Sar][dD][Pip′][2Nal]R[βAla][dA][Dap]F[2Nal]RRRR[Dap]K-NH2 (linker (positions not given here) via Trimesoyl; not fully specified (some residues, bridges); printed as bicyclo[Tm-(Pro-Sar-D-Asp-Pip-Nal-Arg-β-Ala-D-Ala)-Dap-(Phe-Nal-Arg-Arg-Arg-Arg-Dap)]-Lys) [peptide 14 (Table 18)] | µM | 1.75
